recorded_conditions: human;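 further: human cholestatic liver injury, shown by histopathology or by peak ALT or AST elevation over alkaline phosphatase ratio below 2, value counts indexed literature reports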
# Satisfied = Hepatotoxicity (choleostasis) below 1 (exclusive); Not satisfied = Hepatotoxicity (choleostasis) at/above 1

compound: CCn1cc(C(=O)O)c(=O)c2ccc(C)nc21 [NALIDIXIC ACID]
discrete_label: Not satisfied
//
compound: CCN1CCN(C(=O)N[C@@H](C(=O)N[C@@H]2C(=O)N3[C@@H]2SC(C)(C)[C@@H]3C(=O)O)c2ccccc2)C(=O)C1=O [PIPERACILLIN]
discrete_label: Not satisfied
//
compound: CC(C)N(CCC(C(N)=O)(c1ccccc1)c1ccccn1)C(C)C (centres undefined) [DISOPYRAMIDE]
discrete_label: Not satisfied
//
compound: CN(CCCN1c2ccccc2CCc2ccccc21)CC(=O)c1ccc(Cl)cc1 [LOFEPRAMINE]
discrete_label: Not satisfied
//
compound: CCn1cc(C(=O)O)c(=O)c2cnc(N3CCNCC3)nc21 [PIPEMIDIC ACID]
discrete_label: Satisfied
//
compound: [H]/N=C(\N/C(=N/[H])NCCCCCCNC(=N)NC(=N)Nc1ccc(Cl)cc1)Nc1ccc(Cl)cc1 [CHLORHEXIDINE]
discrete_label: Satisfied
//
compound: CC1CCCC(C)N1CCCC(O)(c1ccccc1)c1ccccn1 (centres undefined) [PIRMENOL]
discrete_label: Satisfied
//
compound: COc1ccc(C(=O)Nc2ccccc2CCC2CCCCN2C)cc1 (centres undefined) [ENCAINIDE]
discrete_label: Satisfied
